- TARGET OR TEST SYSTEM: Recombinant ROCK1 (Homo sapiens (Human))
- Sequence (Q13464 whole entry): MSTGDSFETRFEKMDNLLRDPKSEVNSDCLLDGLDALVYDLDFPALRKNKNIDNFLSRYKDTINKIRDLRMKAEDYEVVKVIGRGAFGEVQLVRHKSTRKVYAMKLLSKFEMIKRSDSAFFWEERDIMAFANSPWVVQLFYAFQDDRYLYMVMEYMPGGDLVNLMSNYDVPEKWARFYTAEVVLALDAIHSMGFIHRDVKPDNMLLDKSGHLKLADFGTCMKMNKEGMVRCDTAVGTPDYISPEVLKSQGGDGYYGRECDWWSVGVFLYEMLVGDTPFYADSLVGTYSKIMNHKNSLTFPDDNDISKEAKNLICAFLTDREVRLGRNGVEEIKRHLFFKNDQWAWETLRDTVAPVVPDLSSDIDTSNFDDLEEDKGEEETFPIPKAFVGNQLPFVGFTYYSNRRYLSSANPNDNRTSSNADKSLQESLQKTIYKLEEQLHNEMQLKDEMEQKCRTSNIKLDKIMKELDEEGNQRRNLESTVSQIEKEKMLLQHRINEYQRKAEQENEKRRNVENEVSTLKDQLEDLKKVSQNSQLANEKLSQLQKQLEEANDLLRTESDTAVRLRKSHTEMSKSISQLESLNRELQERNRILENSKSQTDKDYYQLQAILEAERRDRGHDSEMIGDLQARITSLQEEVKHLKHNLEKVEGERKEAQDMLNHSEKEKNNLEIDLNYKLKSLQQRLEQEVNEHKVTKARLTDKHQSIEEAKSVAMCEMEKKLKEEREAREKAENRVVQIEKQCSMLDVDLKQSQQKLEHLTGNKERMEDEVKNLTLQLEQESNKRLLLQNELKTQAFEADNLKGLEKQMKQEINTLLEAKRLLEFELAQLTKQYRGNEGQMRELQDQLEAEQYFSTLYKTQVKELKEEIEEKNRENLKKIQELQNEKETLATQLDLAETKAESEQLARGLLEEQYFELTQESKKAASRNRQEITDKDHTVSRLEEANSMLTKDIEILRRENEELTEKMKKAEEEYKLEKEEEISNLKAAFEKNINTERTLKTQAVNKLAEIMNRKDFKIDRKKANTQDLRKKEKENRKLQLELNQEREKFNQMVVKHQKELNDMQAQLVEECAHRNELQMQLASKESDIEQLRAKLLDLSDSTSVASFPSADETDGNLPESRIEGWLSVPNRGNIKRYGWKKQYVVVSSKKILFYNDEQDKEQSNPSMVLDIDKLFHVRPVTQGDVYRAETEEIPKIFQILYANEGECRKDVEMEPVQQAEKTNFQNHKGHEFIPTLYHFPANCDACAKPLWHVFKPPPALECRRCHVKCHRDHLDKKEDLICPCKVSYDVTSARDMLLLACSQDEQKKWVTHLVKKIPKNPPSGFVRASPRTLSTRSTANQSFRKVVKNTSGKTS
- ASSAY PROCEDURE: Lance Ultra Kinase Assay, ROCK1 inhibition
- PROTOCOL CONDITIONS: ATP at Km, 30 min pre-incubation, 1 h reaction
Readings of IC50 for the listed compounds
Numeric only. Scale: nM

Some entries whose results are on file:
[[record]]
compound = "COc1cccc([C@H](N)C(=O)Nc2cccc3c(-c4cn[nH]c4)c[nH]c23)c1"
property_measured = "IC50"
value = 5.4

[[record]]
compound = "CN(C)Cc1cccc(C(CN)C(=O)Nc2cccc3c(-c4cn[nH]c4)c[nH]c23)c1 (racemic)"
property_measured = "IC50"
value = 34

[[record]]
compound = "NCC(C(=O)Nc1cccc2c(-c3cn[nH]c3)c[nH]c12)c1ccc(C(N)=O)cc1 (racemic) [Example 74]"
property_measured = "IC50"
value = 2

[[record]]
compound = "CN1CCN(CC(C(=O)Nc2cccc3c(-c4cn[nH]c4)c[nH]c23)c2ccccc2)CC1 (single isomer, unassigned) [Example 38]"
property_measured = "IC50"
value = 0.44

[[record]]
compound = "COc1cccc(C(NC(=O)c2cccc3c(-c4cn[nH]c4)c[nH]c23)C2CCN(C)CC2)c1 (single isomer, unassigned) [Example 141]"
property_measured = "IC50"
value = 331


## Input Value lookup for IC50; key = NCC(C(=O)Nc1cccc2c(-c3cn[nH]c3)c[nH]c12)c1cccc(O)c1 (single isomer, unassigned) [Example 64]
## Output 0.37

## Input Which IC50 value belongs to NCC(C(=O)Nc1cccc2c(-c3cn[nH]c3)c[nH]c12)c1ccc(CO)cc1 (single isomer, unassigned) [Example 3] ?
## Output 0.33

###

Below is a list of entries, each paired with its recorded pIC50 value.
- TARGET OR TEST SYSTEM: Recombinant ROCK1 (Homo sapiens (Human))
- ASSAY PROCEDURE: Lance Ultra Kinase Assay, ROCK1 inhibition
- PROTOCOL CONDITIONS: ATP at Km, 30 min pre-incubation, 1 h reaction
Conceptually, pIC50 converts a concentration in mol/L into minus its log10.

[[record]]
molecule = "COc1cccc(C(CN2CCN(C)CC2)NC(=O)c2cccc3c(-c4cn[nH]c4)c[nH]c23)c1 (single isomer, unassigned) [Example 137]"
property_measured = "pIC50"
value = 6.83

[[record]]
molecule = "N#Cc1cccc(C(CN)C(=O)Nc2cccc3c(-c4cn[nH]c4)c[nH]c23)c1 (single isomer, unassigned) [Example 21]"
property_measured = "pIC50"
value = 6.90

[[record]]
molecule = "O=C(Nc1cccc2c(-c3cn[nH]c3)c[nH]c12)C1CNCc2ccccc21 (racemic) [Example 133]"
property_measured = "pIC50"
value = 7.36


## Input Lab note: need pIC50 with Recombinant ROCK1 (Homo sapiens (Human)) for entry NCC(C(=O)Nc1cccc2c(-c3cn[nH]c3)c[nH]c12)C1CCCCC1 (single isomer, unassigned) [Example 23] , please look it up.
## Output 9.72

## Input Lab note: need pIC50 with Recombinant ROCK1 (Homo sapiens (Human)) for entry COc1cccc([C@H](C(=O)Nc2cccc3c(-c4cn[nH]c4)c[nH]c23)C2CCN(C)CC2)c1 (single isomer, unassigned) [Example 30] , please look it up.
## Output 8.49

## Input Could you share what pIC50 was measured for NCC(C(=O)Nc1cccc2c(-c3cn[nH]c3)c[nH]c12)c1cccnc1 (racemic) [Example 31] , tested on Recombinant ROCK1 (Homo sapiens (Human))?
## Output 8.92

## Input Lookup: pIC50 / Recombinant ROCK1 (Homo sapiens (Human)) / NC[C@@H](C(=O)Nc1cccc2c(-c3cn[nH]c3)c[nH]c12)c1ccc(COC(=O)CCCCCO[N+](=O)[O-])cc1 [Example 10]
## Output 8.80

## Input Form field - read-out: pIC50; system: Recombinant ROCK1 (Homo sapiens (Human)); submitted item: COc1cccc(C(CN)C(=O)Nc2cccc3c(-c4cn[nH]c4)c[nH]c23)c1 (single isomer, unassigned) [Example 17]
## Output 7.51

## Input I'm curious: which pIC50 was measured for COc1cccc(C(CN2CCN(C)CC2)C(=O)Nc2cccc3c(-c4cn[nH]c4)c[nH]c23)c1 (single isomer, unassigned) [Example 35] tested on Recombinant ROCK1 (Homo sapiens (Human))?
## Output 8.74
